// data source = the supplement of paper PMC7877785

- test.details: self-splicing fitness, log relative to wild type (ln ratio); higher = more splicing; Tetrahymena group I intron in knt gene, E. coli kanamycin selection, DiMSum; sequences stand for … in CUCUCU…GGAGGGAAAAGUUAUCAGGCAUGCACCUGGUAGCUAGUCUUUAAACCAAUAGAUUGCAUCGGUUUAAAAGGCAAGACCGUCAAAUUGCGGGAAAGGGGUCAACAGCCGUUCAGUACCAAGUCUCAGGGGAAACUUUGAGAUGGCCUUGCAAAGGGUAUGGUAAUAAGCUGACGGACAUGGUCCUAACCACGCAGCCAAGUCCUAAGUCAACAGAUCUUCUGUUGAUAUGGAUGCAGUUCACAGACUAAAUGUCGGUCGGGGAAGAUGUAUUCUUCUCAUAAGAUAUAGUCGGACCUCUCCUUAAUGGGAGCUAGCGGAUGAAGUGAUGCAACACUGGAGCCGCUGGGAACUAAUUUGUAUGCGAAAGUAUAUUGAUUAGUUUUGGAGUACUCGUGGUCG;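 note: selection with 25 µg/mL kanamycin versus none on LB agar overnight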
- condition.parameters: 37 °C
recorded.metric: self-splicing fitness (ln)
Number only, please.

item_sequence=AUUCAGCAAUAUUACGUUCG result=-0.898

Q: Give self-splicing fitness (ln) for the following sequence: `AAUAAGCAAUAUUACGACUU`
Ans: 0.451

====

- test.details: self-splicing fitness, log relative to wild type (ln ratio); higher = more splicing; Tetrahymena group I intron in knt gene, E. coli kanamycin selection, DiMSum; sequences stand for … in CUCUCU…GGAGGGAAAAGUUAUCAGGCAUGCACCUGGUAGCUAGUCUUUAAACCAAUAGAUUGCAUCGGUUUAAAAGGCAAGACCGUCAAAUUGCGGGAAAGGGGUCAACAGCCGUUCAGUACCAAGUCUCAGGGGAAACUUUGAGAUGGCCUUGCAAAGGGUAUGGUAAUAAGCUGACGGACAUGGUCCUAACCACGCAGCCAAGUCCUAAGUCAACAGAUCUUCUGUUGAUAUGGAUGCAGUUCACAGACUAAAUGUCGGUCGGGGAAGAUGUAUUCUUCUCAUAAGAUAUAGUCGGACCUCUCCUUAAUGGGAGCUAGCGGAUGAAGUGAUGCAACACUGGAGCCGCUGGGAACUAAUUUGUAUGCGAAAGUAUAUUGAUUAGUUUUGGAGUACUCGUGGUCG
- condition.parameters: 30 °C
Could you label it 1 if measured self-splicing fitness (ln) is -2 or higher, and -1 otherwise?

Previously resolved entries follow.
item_sequence=ACUCAGCAAUAUUACGGCUA class_name=1
item_sequence=CACUAGCAAUAUUACGGGCU class_name=-1
item_sequence=GUAGAGCAAUAUUACGGACC class_name=1
item_sequence=GGCCAGCAAUAUUACGAAAG class_name=-1
item_sequence=UCACAGCAAUAUUACGACUA class_name=1
item_sequence=AGUAAGCAAUAUUACGUUCC class_name=1
item_sequence=AUCAAGCAAUAUUACGACUA class_name=1
item_sequence=CCGUAGCAAUAUUACGGUGG class_name=-1
item_sequence=AUGCAGCAAUAUUACGCCCU class_name=1
item_sequence=AGUCAGCAAUAUUACGUAGC class_name=-1

Q: Quick check: does `UACGAGCAAUAUUACGUCGA` have self-splicing fitness (ln) greater than or equal to -2?
Ans: -1

Q: Quick check: does `GCGGAGCAAUAUUACGAGUA` have self-splicing fitness (ln) greater than or equal to -2?
Ans: -1

Q: Quick check: does `CCGCAGCAAUAUUACGUACA` have self-splicing fitness (ln) greater than or equal to -2?
Ans: -1

Q: Quick check: does `CAGGAGCAAUAUUACGACCG` have self-splicing fitness (ln) greater than or equal to -2?
Ans: 1

Q: Quick check: does `AGAAAGCAAUAUUACGGCAG` have self-splicing fitness (ln) greater than or equal to -2?
Ans: 1

Q: Quick check: does `GUCGAGCAAUAUUACGAAUC` have self-splicing fitness (ln) greater than or equal to -2?
Ans: 1

Q: Quick check: does `AGGGAGCAAUAUUACGCGGA` have self-splicing fitness (ln) greater than or equal to -2?
Ans: -1

Q: Quick check: does `UUCUAGCAAUAUUACGCAGU` have self-splicing fitness (ln) greater than or equal to -2?
Ans: -1

====

- test.details: self-splicing fitness, log relative to wild type (ln ratio); higher = more splicing; Tetrahymena group I intron in knt gene, E. coli kanamycin selection, DiMSum; sequences stand for … in CUCUCU…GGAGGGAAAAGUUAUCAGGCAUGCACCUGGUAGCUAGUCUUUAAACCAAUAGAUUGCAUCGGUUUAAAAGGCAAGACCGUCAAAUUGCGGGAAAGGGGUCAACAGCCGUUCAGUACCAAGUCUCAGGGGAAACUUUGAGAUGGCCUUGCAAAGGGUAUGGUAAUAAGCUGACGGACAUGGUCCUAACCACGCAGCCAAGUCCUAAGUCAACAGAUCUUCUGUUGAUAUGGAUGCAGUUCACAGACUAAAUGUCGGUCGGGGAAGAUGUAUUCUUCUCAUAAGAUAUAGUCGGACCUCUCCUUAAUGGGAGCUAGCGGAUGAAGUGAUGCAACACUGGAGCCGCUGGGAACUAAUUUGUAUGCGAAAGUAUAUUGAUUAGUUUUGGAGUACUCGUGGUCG
- condition.parameters: 37 °C
recorded.metric: self-splicing fitness (ln)
Number only, please.

item_sequence=CUAAAGCAAUAUUACGAAAU result=-2.01
item_sequence=UAAUAGCAAUAUUACGCACU result=-1.02
item_sequence=UCCGAGCAAUAUUACGUCAA result=-2.27
item_sequence=CUUCAGCAAUAUUACGGCAU result=-2.1
item_sequence=UUGGAGCAAUAUUACGCUUG result=-1.25

Q: Give self-splicing fitness (ln) for the following sequence: `UUAUAGCAAUAUUACGAGGC`
Ans: -3.71

Q: Give self-splicing fitness (ln) for the following sequence: `AACGAGCAAUAUUACGUAGC`
Ans: -2.44

Q: Give self-splicing fitness (ln) for the following sequence: `GCGAAGCAAUAUUACGGAUA`
Ans: -0.933

Q: Give self-splicing fitness (ln) for the following sequence: `AGGCAGCAAUAUUACGCGUA`
Ans: -0.127

Q: Give self-splicing fitness (ln) for the following sequence: `UUGUAGCAAUAUUACGGAGC`
Ans: -2.38

Q: Give self-splicing fitness (ln) for the following sequence: `UAGGAGCAAUAUUACGUCCG`
Ans: 1.13

Q: Give self-splicing fitness (ln) for the following sequence: `CUACAGCAAUAUUACGUUGC`
Ans: -2.82

Q: Give self-splicing fitness (ln) for the following sequence: `CCACAGCAAUAUUACGAGCG`
Ans: 0.184

Q: Give self-splicing fitness (ln) for the following sequence: `GGAAAGCAAUAUUACGAUGC`
Ans: -0.26

====

# self-splicing fitness (ln) values compiled below
- test.details: self-splicing fitness, log relative to wild type (ln ratio); higher = more splicing; Tetrahymena group I intron in knt gene, E. coli kanamycin selection, DiMSum; sequences stand for … in CUCUCU…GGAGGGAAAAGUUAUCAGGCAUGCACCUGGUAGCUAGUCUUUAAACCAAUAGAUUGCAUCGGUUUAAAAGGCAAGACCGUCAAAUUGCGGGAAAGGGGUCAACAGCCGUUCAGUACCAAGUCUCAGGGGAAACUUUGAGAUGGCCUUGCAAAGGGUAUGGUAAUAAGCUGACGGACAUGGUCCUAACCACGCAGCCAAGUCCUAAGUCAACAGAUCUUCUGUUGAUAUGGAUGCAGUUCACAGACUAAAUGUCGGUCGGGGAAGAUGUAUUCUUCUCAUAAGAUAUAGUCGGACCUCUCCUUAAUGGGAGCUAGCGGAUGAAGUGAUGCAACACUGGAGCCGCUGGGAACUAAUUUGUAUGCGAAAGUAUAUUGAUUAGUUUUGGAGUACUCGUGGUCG
- condition.parameters: 30 °C
Number only, please.

Worked examples follow.
item_sequence=AGUCAGCAAUAUUACGUUAU result=-1.25
item_sequence=UGCAAGCAAUAUUACGGUCG result=-0.179
item_sequence=CAUCAGCAAUAUUACGUAUC result=-1.9

Q: Give self-splicing fitness (ln) for the following sequence: `GUAGAGCAAUAUUACGCAAA`
Ans: -2.21

Q: Give self-splicing fitness (ln) for the following sequence: `CCAGAGCAAUAUUACGGUGU`
Ans: -3.53

Q: Give self-splicing fitness (ln) for the following sequence: `GCGAAGCAAUAUUACGUACU`
Ans: -0.436

Q: Give self-splicing fitness (ln) for the following sequence: `AAACAGCAAUAUUACGAUCG`
Ans: -2.18

Q: Give self-splicing fitness (ln) for the following sequence: `UUAGAGCAAUAUUACGCUUG`
Ans: -0.891

Q: Give self-splicing fitness (ln) for the following sequence: `CGUCAGCAAUAUUACGGUUA`
Ans: -2.25

Q: Give self-splicing fitness (ln) for the following sequence: `GCCGAGCAAUAUUACGACGG`
Ans: -3.78

Q: Give self-splicing fitness (ln) for the following sequence: `ACCAAGCAAUAUUACGCUCA`
Ans: -0.49

Q: Give self-splicing fitness (ln) for the following sequence: `CCGAAGCAAUAUUACGGUCC`
Ans: -3.68

Q: Give self-splicing fitness (ln) for the following sequence: `CAGCAGCAAUAUUACGGGCC`
Ans: -3.41

Q: Give self-splicing fitness (ln) for the following sequence: `UAGGAGCAAUAUUACGUAGA`
Ans: -1.5

Q: Give self-splicing fitness (ln) for the following sequence: `GGAGAGCAAUAUUACGUCUG`
Ans: -1.13

Q: Give self-splicing fitness (ln) for the following sequence: `AGGCAGCAAUAUUACGAAAU`
Ans: -1.8

Q: Give self-splicing fitness (ln) for the following sequence: `CCCUAGCAAUAUUACGUAUA`
Ans: -3.24

Q: Give self-splicing fitness (ln) for the following sequence: `GCCGAGCAAUAUUACGGUUG`
Ans: -1.38

Q: Give self-splicing fitness (ln) for the following sequence: `AUCCAGCAAUAUUACGGCCC`
Ans: -0.946
